# studyTarget: Retinoic acid receptor gamma (Homo sapiens)
# Sequence (P13631 whole entry): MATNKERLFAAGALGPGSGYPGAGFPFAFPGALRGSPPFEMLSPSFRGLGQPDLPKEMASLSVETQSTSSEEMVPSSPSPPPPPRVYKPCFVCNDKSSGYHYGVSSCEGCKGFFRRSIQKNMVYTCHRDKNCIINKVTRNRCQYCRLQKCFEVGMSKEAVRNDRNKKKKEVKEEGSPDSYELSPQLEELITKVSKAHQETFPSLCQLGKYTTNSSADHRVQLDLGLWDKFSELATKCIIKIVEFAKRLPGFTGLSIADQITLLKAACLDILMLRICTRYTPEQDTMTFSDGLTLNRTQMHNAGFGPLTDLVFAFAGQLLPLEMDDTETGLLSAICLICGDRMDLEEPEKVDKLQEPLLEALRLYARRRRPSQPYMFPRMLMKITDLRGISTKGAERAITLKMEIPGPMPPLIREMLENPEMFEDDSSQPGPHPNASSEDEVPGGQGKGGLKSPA
# protocol: Inhibition of [3H]RA to binding Retinoic acid receptor RAR gamma
reportedMetric: Ki (nM)
Report the value in nM with no unit label.

-- ask Item CC1=C(/C=C/C(C)=C/C=C/C(C)=C/C(=O)NC2OC(CO)C(O)C(O)C2O)C(C)(C)CCC1 (stereo unspecified) has what recorded Ki?
-- reply 710

====

# studyTarget: Retinoic acid receptor gamma (Homo sapiens)
# Sequence (P13631 whole entry): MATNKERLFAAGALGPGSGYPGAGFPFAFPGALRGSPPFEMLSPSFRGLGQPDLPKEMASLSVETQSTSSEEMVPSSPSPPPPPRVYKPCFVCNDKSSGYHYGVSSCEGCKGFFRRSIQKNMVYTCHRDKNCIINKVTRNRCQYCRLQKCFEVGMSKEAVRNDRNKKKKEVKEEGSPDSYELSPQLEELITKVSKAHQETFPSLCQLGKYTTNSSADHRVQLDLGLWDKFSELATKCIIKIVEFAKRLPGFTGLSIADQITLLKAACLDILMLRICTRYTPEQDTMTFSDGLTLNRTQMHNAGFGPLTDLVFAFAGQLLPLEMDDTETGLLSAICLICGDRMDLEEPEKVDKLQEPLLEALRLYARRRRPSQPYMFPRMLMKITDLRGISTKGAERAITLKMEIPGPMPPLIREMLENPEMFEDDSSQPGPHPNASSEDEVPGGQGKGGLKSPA
# protocol: Inhibition of [3H]RA binding to Retinoic acid receptor RAR gamma
reportedMetric: Ki (nM)
The reply should contain only the number, in nM.

-- ask Endpoint output: Ki of CC1=C(/C=C/C(C)=C/C=C/C(C)=C/C(=O)NC2OC(C(=O)O)C(O)C(O)C2O)C(C)(C)CCC1 (stereo unspecified) . Value?
-- reply 280
